Experiment: Hydrolysis rate category of organosilanes and organosiloxanes, approximately based on half lives
Assay type: physicochemical
Settings: organosilanes, Table 1; rates approximately based on half lives
Measurement label: Hydrolysis rate

CCC(C)O[Si](OC(C)CC)(OC(C)CC)OC(C)CC (stereo not shown) : Slow (Slow - 1 month)
CCCCO[Si](OCCCC)(OCCCC)OCCCC : Slow (Slow - 1 month)
CCCC(=O)O[Si](OC(=O)CCC)(OC(=O)CCC)OC(=O)CCC [compound 7, Silicon tetrabutyrate] : Fast

====

Experiment: Hydrolysis rate category of organosilanes and organosiloxanes, approximately based on half lives
Type: physicochemical
Settings: organosilanes, Table 1; rates approximately based on half lives
Measurement label: Hydrolysis rate

CCCO[Si](OCCC)(OCCC)OCCC : Slow (Slow - 1 month)
CCC(CC)CO[Si](OCC(CC)CC)(OCC(CC)CC)OCC(CC)CC : Very Slow
CC(C)CO[Si](OCC(C)C)(OCC(C)C)OCC(C)C : Slow (Slow - 1 month)
CC(C)O[Si](OC(C)C)(OC(C)C)OC(C)C : Slow (Slow - 1 month)

Prompt line: Supply reported Hydrolysis rate belonging to this compound: C=CCO[Si](OCC=C)(OCC=C)OCC=C
Response line: Slow (Slow - 1 month)

Prompt line: Return Hydrolysis rate for the following compound: CCC(C)CO[Si](OCC(C)CC)(OCC(C)CC)OCC(C)CC (stereo not shown)
Response line: Very Slow

Prompt line: Please give measured Hydrolysis rate of the following entry: CCC(=O)O[Si](OC(=O)CC)(OC(=O)CC)OC(=O)CC [compound 6, Silicon tetrapropionate]
Response line: Fast
